Data provenance: patent US4956489A

We begin with a simple list: items and their reported solubility.
# procedure.summary: solubility in water
# Format: physicochemical
# setup.conditions: in water at 25° C. and pH 6; read-out: solubility in water

compound: O=C([O-])C[C@H](O)C(=O)N[C@@H](Cc1ccc(O)cc1)C(=O)[O-].[Na+].[Na+] [L-malyl-L-tyrosine disodium salt]
solubility: 820 mg/mL
//
compound: C[C@H](O)C(=O)N[C@@H](Cc1ccc(O)cc1)C(=O)[O-].[Na+]
solubility: ≥ 330 mg/mL

---

We begin with a simple list: items and their reported solubility.
# procedure.summary: solubility in water
# Assay type: physicochemical
# setup.conditions: in water at 25° C. and pH 6; read-out: solubility in water, equivalent molar

molecule: O=C([O-])C[C@H](O)C(=O)N[C@@H](Cc1ccc(O)cc1)C(=O)[O-].[Na+].[Na+] [L-malyl-L-tyrosine disodium salt]
inequality.operator: =
solubility [mM]: 2400
//
molecule: C[C@H](O)C(=O)N[C@@H](Cc1ccc(O)cc1)C(=O)[O-].[Na+]
inequality.operator: ≥
solubility [mM]: 1200
